Where these numbers come from: patent US20140322218A1

study system: T1, Cyno Cadherin-19 (cynomolgus monkey (Macaca fascicularis), UniProt Q9H159 44-772 (human entry))
T1 construct: also called cyno CDH19; cynomologous CDH-19
T1 chain: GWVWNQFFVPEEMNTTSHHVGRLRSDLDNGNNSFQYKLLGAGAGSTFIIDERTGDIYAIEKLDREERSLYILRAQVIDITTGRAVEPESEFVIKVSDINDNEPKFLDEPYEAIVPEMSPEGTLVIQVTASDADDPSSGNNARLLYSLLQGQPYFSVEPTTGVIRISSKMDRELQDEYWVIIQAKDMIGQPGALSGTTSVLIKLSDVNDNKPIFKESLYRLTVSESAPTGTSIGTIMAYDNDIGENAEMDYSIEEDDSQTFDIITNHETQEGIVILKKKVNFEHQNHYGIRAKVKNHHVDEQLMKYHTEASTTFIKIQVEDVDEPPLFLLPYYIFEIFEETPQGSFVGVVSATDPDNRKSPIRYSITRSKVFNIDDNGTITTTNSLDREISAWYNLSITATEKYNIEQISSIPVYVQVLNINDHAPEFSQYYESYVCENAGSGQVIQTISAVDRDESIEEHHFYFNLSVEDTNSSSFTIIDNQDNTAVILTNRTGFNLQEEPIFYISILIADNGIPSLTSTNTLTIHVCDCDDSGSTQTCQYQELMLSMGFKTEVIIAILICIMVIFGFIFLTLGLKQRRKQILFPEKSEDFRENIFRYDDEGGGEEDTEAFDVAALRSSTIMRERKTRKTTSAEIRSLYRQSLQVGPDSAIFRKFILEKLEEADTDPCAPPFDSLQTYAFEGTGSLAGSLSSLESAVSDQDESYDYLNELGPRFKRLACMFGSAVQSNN
protocol: FACS, recombinant cyno CDH19
endpoint name: binding result

hu anti-<huCDH19> 4A9 VH::huIgG1z / 4A9 VL::huLLC-C1 (Ab ID 13589) (antibody, V domains shown, Recombinant fully human IgG1) VH: QVQLQESGPGLVKPSETLSLTCTVSGGSISGYYWSWIRQPPGKGLEWFAYFSYSGSTNYNPSLKSRVTLSVDTSKNQFSLKLSSVTAADTAVYYCARNWAFHFDFWGQGTLVTVSS VL: QSVLTQPPSVSGAPGQRVTISCTGSSSNIGTGYAVHWYQQFPGTAPKLLIYGNNNRPSGVPDRFSGSKSGTSASLAITGLQAEDEADYYCQSYDSRLSGWVFGGGTKLTVLG; binds
hu anti-<huCDH19> 4F7 VH::huIgG1z / 4F7 VL::huLLC-C1 (Ab ID 13591) (antibody, V domains shown) VH: QVQLQESGPGLVKPSETLSLTCTVSGGSISSYSWSWIRQPPGKGLEWIGYIYYSGSTNYNPSLKSRVTISLDTSKNQFSLKLSSVTAADTAVYYCARNWAFHFDYWGQGTLVTVSS VL: QSVLTQPPSVSGAPGQRVTISCTGSSSNIGTGYDVHWYQQLPGTAPKLLIHGNSNRPSGVPDRFSGSKSGTSASLAITGLQAEDEADYYCQSYDSSLSGWVFGGGTRLTVLG; binds
hu anti-<huCDH19> 19B5.1 VH::huIgG1z / 19B5.1 VL::huLLC-C2 (Ab ID 13885) (antibody, V domains shown) VH: QVQLVQSGAEVKKPGASVKVSCKVSGYTFTSYFIHWVRQAPGQGLEWMGIINPISVSTSYAQKFQGRVTMTRDTSTSTVFMELSSLRSEDTAVYYCARGGIQLWLHLDYWGQGTLVTVSS VL: QSALTQPPSTTGTPGQRVTISCSGSRSNIGSNFVNWYKQLPGTAPKVLIYTNNQRPSGVPDRFSGSKSGTSASLAISGLQSEDESDYYCATWDDSMNGWVFGGGTKLTVLG; binds
